biological target: T1, human LRRC33-proTGFβ1 complex (human, UniProt Q86YC3 19-650; P01137 30-390); assay: BLI (Octet)
T1 construct: also called hLRRC33-proTGFβ1; hLRRC33
T1 sequence (Q86YC3 other isoform, or with tags, fused parts or gaps limits assumed, chain 1 of 2): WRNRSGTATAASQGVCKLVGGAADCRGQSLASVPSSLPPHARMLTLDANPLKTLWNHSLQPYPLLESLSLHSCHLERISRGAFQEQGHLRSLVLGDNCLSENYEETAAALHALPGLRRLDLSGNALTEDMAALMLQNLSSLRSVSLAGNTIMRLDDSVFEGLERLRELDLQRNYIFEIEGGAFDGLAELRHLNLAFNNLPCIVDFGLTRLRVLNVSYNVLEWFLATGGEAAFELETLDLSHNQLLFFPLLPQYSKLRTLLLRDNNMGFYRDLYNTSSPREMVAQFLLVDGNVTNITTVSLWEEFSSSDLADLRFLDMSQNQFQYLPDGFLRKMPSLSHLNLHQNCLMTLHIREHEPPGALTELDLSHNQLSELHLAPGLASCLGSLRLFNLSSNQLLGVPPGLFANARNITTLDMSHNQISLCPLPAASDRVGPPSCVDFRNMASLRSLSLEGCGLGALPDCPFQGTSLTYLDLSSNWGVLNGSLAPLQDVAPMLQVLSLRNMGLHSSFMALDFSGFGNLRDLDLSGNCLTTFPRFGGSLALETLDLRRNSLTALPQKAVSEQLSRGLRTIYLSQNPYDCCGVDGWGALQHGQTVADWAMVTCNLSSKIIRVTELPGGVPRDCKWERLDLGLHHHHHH
T1 sequence (P01137 30-390 limits assumed, chain 2 of 2): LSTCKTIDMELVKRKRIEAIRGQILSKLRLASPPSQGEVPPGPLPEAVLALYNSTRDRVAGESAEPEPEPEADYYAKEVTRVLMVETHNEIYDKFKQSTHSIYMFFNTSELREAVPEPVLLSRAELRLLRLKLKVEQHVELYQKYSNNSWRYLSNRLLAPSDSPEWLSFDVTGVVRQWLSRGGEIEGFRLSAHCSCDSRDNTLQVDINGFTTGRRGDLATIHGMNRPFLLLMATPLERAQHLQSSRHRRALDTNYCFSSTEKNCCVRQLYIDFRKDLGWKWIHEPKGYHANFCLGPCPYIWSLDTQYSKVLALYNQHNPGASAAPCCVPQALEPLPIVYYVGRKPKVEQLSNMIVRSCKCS
MEASURED PARAMETER: Kd (nM)
Answers are plain numbers, in nM.

Give me Kd for each of these binders, listed below.
1. Ab24 (antibody, IgG4, V domains shown) VH: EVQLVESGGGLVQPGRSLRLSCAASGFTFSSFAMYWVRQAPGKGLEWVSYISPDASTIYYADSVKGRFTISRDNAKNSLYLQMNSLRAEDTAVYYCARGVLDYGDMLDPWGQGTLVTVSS VL: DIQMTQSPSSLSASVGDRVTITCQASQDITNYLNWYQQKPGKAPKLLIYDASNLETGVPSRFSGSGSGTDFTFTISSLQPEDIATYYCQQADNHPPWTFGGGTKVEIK
2. Ab28 (antibody, V domains shown) VH: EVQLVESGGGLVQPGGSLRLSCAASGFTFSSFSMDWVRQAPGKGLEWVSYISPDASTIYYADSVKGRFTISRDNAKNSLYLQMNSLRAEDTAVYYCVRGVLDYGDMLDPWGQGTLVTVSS VL: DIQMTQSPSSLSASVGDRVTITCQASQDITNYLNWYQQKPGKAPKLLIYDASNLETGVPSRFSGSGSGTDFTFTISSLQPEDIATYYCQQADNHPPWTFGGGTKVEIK
3. Ab19 (antibody, IgG4, V domains shown) VH: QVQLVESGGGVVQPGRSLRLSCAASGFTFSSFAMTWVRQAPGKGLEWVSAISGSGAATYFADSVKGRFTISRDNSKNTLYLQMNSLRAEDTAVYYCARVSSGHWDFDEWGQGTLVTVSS VL: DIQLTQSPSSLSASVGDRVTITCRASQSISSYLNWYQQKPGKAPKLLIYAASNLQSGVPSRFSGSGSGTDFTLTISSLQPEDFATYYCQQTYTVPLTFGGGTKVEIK
4. Ab14 (antibody, V domains shown) VH: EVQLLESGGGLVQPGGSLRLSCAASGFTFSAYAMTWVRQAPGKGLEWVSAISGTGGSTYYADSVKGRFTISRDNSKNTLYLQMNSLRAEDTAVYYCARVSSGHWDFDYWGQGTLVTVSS VL: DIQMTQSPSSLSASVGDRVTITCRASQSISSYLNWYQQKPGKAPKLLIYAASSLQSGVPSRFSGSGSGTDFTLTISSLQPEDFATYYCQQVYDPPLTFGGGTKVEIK
5. Ab26 (antibody, IgG4, V domains shown) VH: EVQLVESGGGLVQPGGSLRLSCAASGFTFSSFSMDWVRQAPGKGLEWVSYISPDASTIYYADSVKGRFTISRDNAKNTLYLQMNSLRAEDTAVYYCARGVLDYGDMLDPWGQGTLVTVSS VL: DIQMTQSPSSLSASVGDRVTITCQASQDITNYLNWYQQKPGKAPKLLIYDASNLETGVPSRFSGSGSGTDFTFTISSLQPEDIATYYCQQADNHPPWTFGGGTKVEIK
6. Ab6 (antibody, human IgG4 S228P, kappa, V domains shown) VH: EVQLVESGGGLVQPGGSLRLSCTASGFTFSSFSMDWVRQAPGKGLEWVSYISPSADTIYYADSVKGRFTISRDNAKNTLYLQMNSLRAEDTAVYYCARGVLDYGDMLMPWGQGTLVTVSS VL: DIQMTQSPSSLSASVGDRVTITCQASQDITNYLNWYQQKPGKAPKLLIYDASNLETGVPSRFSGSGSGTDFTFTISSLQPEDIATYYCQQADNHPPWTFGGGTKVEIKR
7. Ab18 (antibody, V domains shown) VH: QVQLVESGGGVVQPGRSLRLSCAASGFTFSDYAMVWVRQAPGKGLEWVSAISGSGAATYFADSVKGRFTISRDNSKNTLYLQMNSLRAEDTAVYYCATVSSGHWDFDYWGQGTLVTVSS VL: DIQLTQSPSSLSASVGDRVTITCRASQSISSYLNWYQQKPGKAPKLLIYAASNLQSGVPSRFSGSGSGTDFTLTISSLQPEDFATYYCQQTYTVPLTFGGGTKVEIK

1: 0.41; 2: 0.409; 3: 0.692; 4: 1.34; 5: 0.36; 6: 0.336; 7: 1.02

Give me Kd for each of these binders, listed below.
1. Ab30 (antibody, IgG4, V domains shown) VH: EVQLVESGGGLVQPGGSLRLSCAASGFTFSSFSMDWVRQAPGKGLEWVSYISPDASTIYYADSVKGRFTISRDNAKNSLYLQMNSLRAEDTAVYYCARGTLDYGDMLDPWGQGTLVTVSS VL: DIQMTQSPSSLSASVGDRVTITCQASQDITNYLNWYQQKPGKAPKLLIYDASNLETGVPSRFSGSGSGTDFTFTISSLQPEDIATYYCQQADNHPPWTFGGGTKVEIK
2. Ab12 (antibody, IgG4, V domains shown) VH: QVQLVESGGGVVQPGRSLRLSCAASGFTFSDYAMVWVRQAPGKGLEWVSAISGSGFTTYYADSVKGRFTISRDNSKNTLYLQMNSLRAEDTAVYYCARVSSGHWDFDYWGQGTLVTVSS VL: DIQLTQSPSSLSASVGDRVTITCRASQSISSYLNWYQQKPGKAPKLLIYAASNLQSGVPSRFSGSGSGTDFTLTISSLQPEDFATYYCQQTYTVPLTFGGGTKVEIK
3. Ab23 (antibody, V domains shown) VH: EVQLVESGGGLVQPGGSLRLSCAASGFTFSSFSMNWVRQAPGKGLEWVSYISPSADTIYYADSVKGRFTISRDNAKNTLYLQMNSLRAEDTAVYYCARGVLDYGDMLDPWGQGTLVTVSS VL: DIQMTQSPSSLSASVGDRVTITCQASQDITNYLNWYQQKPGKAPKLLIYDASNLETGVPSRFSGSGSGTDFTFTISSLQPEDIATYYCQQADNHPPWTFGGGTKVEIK
4. Ab31 (antibody, IgG4, V domains shown) VH: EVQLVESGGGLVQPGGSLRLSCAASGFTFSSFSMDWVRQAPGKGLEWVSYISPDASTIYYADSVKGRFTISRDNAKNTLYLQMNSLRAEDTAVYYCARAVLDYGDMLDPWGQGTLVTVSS VL: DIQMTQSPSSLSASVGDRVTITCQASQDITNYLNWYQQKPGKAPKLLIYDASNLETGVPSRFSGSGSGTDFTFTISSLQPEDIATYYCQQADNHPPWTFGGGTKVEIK

1. 0.535
2. 0.775
3. 0.455
4. 0.41
